Recorded values, source ChEMBL document CHEMBL1157705.

study-target: UniProt P00915
Sequence (P00915 2-261 limits assumed): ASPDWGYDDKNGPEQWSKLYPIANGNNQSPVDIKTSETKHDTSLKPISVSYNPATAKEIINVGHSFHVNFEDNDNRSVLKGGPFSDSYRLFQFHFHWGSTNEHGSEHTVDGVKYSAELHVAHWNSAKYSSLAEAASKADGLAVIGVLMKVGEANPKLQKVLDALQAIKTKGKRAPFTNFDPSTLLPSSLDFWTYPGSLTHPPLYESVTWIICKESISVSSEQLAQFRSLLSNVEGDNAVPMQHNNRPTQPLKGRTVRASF
endpoint-name: Ki (µM)

Which Ki is listed for O=C(Cc1ccc(O)c(Cl)c1)NCc1ccccc1 ? 10.5

Which Ki is listed for O=C(O)Cc1ccc(O)cc1 ? 309

Which Ki is listed for O=C(Cc1ccc(O)c(Cl)c1)NCCc1ccccc1 ? 9.6

Which Ki is listed for O=C(O)/C=C/C(=O)O ? 395

[A] COCCNC(=O)Cc1ccc(O)c(Cl)c1
[B] COC(=O)/C=C/C(=O)O
Field: lower Ki | Options: A / B Give the label of your selection. A
(A: 158 µM, B: 284 µM)

[a] COc1cc(/C=C2\N=C(N)NC2=O)ccc1O
[b] OCCc1ccc(O)cc1
Field: lower Ki | Options: a / b Give the label of your selection. a
